Reference source for all entries: ChEMBL document CHEMBL1153494

Tested on: HCT-116
Assay: Growth inhibition of human HCT116 cells at 100 uM after 24 hrs by alamar blue assay
Format: functional
Conditions: HCT-116, 72 h, in the assay text read “after 72 hrs” for “after 24 hrs”
Label n if inhibition at 100 µM falls below 4%; label y in every other case.

compound=NC(=O)c1ccccc1Nc1cccc(CCO)c1 classification=y
compound="NC(=O)c1ccccc1Nc1ccccc1 [ANILINOBENZAMIDE]" classification=y
compound=NC(=O)c1ccccc1Nc1cccc(Oc2ccccc2)c1 classification=y
compound=NC(=O)c1ccccc1Nc1cccc(-c2ccccc2)c1 classification=y
compound=NC(=O)c1ccccc1Nc1cccc(/C=C/C(=O)O)c1 classification=n
